Give Papp A→B for every item shown.
- ASSAY_TEXT: Membrane permeability test using Caco-2 cells with preincubation
- Type: in vitro ADME
- CONDITIONS_USED: Caco-2; preincubation 20 to 24 hours; Apical FaSSIF/HBSS pH 6.0, Basal HBSS 4% BSA pH 7.4; 180 minutes; read-out: Caco2 Papp
Positions of bridges follow the written chain, without caps; N, C: chain ends. Non-standard residues stand in square brackets, D forms with d. Residues, ends and D or L forms follow the SMILES beside them. *: point of attachment. NMeF = CN[C@@H](Cc1ccccc1)C(=O)O; NMeI = CC[C@H](C)[C@H](NC)C(=O)O; NMeT = CN[C@H](C(=O)O)[C@@H](C)O; NMeD = CN[C@@H](CC(=O)O)C(=O)O; NMeL = CN[C@@H](CC(C)C)C(=O)O; NMeV = CN[C@H](C(=O)O)C(C)C; d(β3hA) = C[C@@H](N)CC(=O)O; NMeAbu = CC[C@H](NC)C(=O)O; NMeA = CN[C@@H](C)C(=O)O; Piperidide = C1CCN(*)CC1; Abu = CC[C@H](N)C(=O)O; NBuGly = CCCCNCC(=O)O; Sar = CNCC(=O)O; tBu = CC(C)(C)*
Give bare numbers, in ×10⁻⁶ cm/s.

Here's what some known entries look like.
>>> quantitative_readout("CCCCN1CC(=O)N[C@@H](CC(C)C)C(=O)N(C)[C@@H]([C@@H](C)CC)C(=O)N(C)[C@@H]([C@@H](C)O)C(=O)N(C)[C@@H](Cc2ccccc2)C(=O)N[C@@H]([C@@H](C)CC)C(=O)N(C)[C@@H](CC(C)C)C(=O)N[C@H](C(=O)N2CCCCC2)CC(=O)N(C)[C@@H](C)C(=O)N[C@@H](CC(C)C)C(=O)N(C)[C@@H](CC(C)C)C(=O)N(C)[C@@H](Cc2ccccc2)C(=O)N[C@@H](CC)C1=O [pd111] ([NMeA]L[NMeL][NMeF][Abu][NBuGly]L[NMeI][NMeT][NMeF]I[NMeL]D-Piperidide; lactam N-13)")
0.04
>>> quantitative_readout("CC[C@H]1C(=O)N(C)CC(=O)N[C@@H]([C@@H](C)O)C(=O)N(C)[C@@H](CC(C)C)C(=O)N[C@@H](CC(C)C)C(=O)N(C)[C@@H](Cc2ccccc2)C(=O)N(C)[C@@H](C(C)C)C(=O)N2CCC[C@H]2C(=O)N(C)[C@@H](C)C(=O)N(C)[C@@H](C(C)C)C(=O)N[C@H](C(=O)N2CCCCC2)CC(=O)N(C)[C@@H](CC(C)C)C(=O)N(C)[C@@H](Cc2ccccc2)C(=O)N1C [pd126] ([NMeL][NMeF][NMeAbu][Sar]T[NMeL]L[NMeF][NMeV]P[NMeA][NMeV]D-Piperidide; lactam N-13)")
0.88
>>> quantitative_readout("CC[C@H](C)[C@@H]1NC(=O)[C@H](CC(C)C)N(C)C(=O)CN(C)C(=O)C[C@@H](C(=O)N2CCCCC2)N(C)C(=O)CNC(=O)[C@H](C)N(C)C(=O)[C@H](C(C)C)N(C)C(=O)[C@H](C)N(C)C(=O)[C@H](Cc2ccccc2)N(C)C(=O)[C@H](CC(C)C)NC(=O)[C@H](Cc2ccccc2)N(C)C(=O)[C@H](C(C)C)NC(=O)[C@H](CC(C)C)N(C)C1=O [pd156] ([Sar][NMeL]I[NMeL]V[NMeF]L[NMeF][NMeA][NMeV][NMeA]G[NMeD]-Piperidide; lactam N-13)")
0.39

Let us move to another entry and its Papp A→B.
### Prompt For the molecule CC[C@H]1C(=O)N(C)[C@@H](C)C(=O)N[C@@H](CC(C)C)C(=O)N(C)[C@@H](C(C)C)C(=O)N[C@H](C)CC(=O)N[C@H](C(C)C)C(=O)N(C)[C@@H](CC(C)C)C(=O)N[C@@H](CC(C)C)C(=O)N(C)[C@@H](C(C)C)C(=O)N(C)[C@@H](CC(C)C)C(=O)N(C)CC(=O)N[C@@H]([C@@H](C)O)C(=O)N(C)[C@@H](Cc2ccccc2)C(=O)N[C@@H](COC(C)(C)C)C(=O)N1C [pd049] (cyclo(L[NMeV][NMeL][Sar]T[NMeF]S(tBu)[NMeAbu][NMeA]L[NMeV][d(β3hA)][dV][NMeL])) , what Papp A→B is on record?
### Response 0.32

---

- ASSAY_TEXT: Membrane permeability test using Caco-2 cells with preincubation
- Format: in vitro ADME
- CONDITIONS_USED: Caco-2; preincubation 20 to 24 hours; Apical FaSSIF/HBSS pH 6.0, Basal HBSS 4% BSA pH 7.4; 180 minutes; read-out: Caco2 Papp
Positions of bridges follow the written chain, without caps; N, C: chain ends. Non-standard residues stand in square brackets, D forms with d. Residues, ends and D or L forms follow the SMILES beside them. *: point of attachment. hPhe = N[C@@H](CCc1ccccc1)C(=O)O; NMeD = CN[C@@H](CC(=O)O)C(=O)O; NMeL = CN[C@@H](CC(C)C)C(=O)O; NMeV = CN[C@H](C(=O)O)C(C)C; NMeA = CN[C@@H](C)C(=O)O; Piperidide = C1CCN(*)CC1; NBuGly = CCCCNCC(=O)O; tBu = CC(C)(C)*
MEASURED_ATTRIBUTE: Papp A→B

### Prompt State the recorded Papp A→B for this entry: CCCCN1CC(=O)N(C)[C@@H](CC(C)C)C(=O)N[C@@H]([C@@H](C)O)C(=O)N(C)[C@@H](C)C(=O)N2CCC[C@H]2C(=O)N[C@@H](CCc2ccccc2)C(=O)N[C@@H]([C@@H](C)CC)C(=O)N(C)[C@H](C(=O)N2CCCCC2)CC(=O)N(C)[C@@H](CC(C)C)C(=O)N[C@@H](COC(C)(C)C)C(=O)N(C)[C@@H](C(C)C)C(=O)N[C@@H]([C@@H](C)CC)C(=O)N2CCC[C@H]2C(=O)N[C@@H](C(C)C)C1=O [pd087] ([NMeL]S(tBu)[NMeV]IPV[NBuGly][NMeL]T[NMeA]P[hPhe]I[NMeD]-Piperidide; lactam N-14)
### Response < 0.07 ×10⁻⁶ cm/s

---

Field: Caco2 Papp (10^-6 cm/sec). Provide a value for each of the molecules that follow.
- Test system: Caco-2 cells
- ASSAY_TEXT: Membrane permeability test using Caco-2 cells with preincubation
- Type: in vitro ADME
- CONDITIONS_USED: Caco-2 cells, preincubation 20 to 24 hours; apical FaSSIF/HBSS 1% DMSO pH 6.0, basal HBSS 4% BSA pH 7.4; basal sample at 180 minutes
Starred links: 1 amine or outer side, 2 acyl side, 3 side chain; linkers in the order of their positions; H or OH if unused. Positions of bridges follow the written chain, without caps; N, C: chain ends. Non-standard residues stand in square brackets, D forms with d. Residues, ends and D or L forms follow the SMILES beside them. *: point of attachment. NMedβ3hAla = C[C@H](CC(=O)[*:2])N(C)[*:1]; NMeF = CN[C@@H](Cc1ccccc1)C(=O)O; NMeGABA = CN(CCCC(=O)[*:2])[*:1]; NMeβAla = CN(CCC(=O)[*:2])[*:1]; NMeL = CN[C@@H](CC(C)C)C(=O)O; NMeA = CN[C@@H](C)C(=O)O; Piperidide = C1CCN(*)CC1; Abu = CC[C@H](N)C(=O)O; tBu = CC(C)(C)*

>>> result("CC[C@H](C)[C@@H]1NC(=O)[C@H](C)N(C)C(=O)[C@H]([C@@H](C)O)NC(=O)[C@H](CC(C)C)N(C)C(=O)[C@H](COC(C)(C)C)NC(=O)[C@H](Cc2ccccc2)N(C)C(=O)[C@H]([C@@H](C)CC)NC(=O)CNC(=O)[C@H](Cc2ccccc2)N(C)C(=O)[C@H](CC(C)C)N(C)C(=O)CCCN(C)C(=O)C[C@@H](C)N(C)C(=O)[C@H](CC(C)C)NC1=O [pd145] (cyclo(GI[NMeF]S(tBu)[NMeL]T[NMeA]IL[NMedβ3hAla][NMeGABA][NMeL][NMeF]))")
"0.05 10^-6 cm/sec"

### Prompt May I ask what Caco2 Papp (10^-6 cm/sec) has been recorded for CC[C@@H]1NC(=O)[C@H]([C@@H](C)CC)NC(=O)[C@H](Cc2ccccc2)N(C)C(=O)[C@H](CC(C)C)N(C)C(=O)[C@H](CC(C)C)NC(=O)CCN(C)C(=O)C[C@@H](C(=O)N2CCCCC2)NC(=O)[C@H](C(C)C)NC(=O)[C@H](CC(C)C)N(C)C(=O)[C@H](C)N(C)C(=O)[C@H](C(C)C)NC(=O)[C@H](CC(C)C)N(C)C(=O)[C@H](COC(C)(C)C)NC(=O)[C@H](Cc2ccccc2)N(C)C1=O [pd015] ([NMeβAla]L[NMeL][NMeF]I[Abu][NMeF]S(tBu)[NMeL]V[NMeA][NMeL]VD-Piperidide; lactam N-14) ?
### Response 0.04 10^-6 cm/sec
